Data origin: patent US9586986B2

# Test system: K562
# test_details: Cytostatic/cytotoxic MTT assay, K562
# Assay type: cell-based
# condition: Homo sapiens, K562; 72 h incubation; read-out: MTT, IC50 K562
pIC50: −log10 of the molar value.

# compound, pIC50
rows = [
    ("Cc1ncnc2c1c(I)cn2[C@@H]1O[C@H](CO)[C@@H](O)[C@H]1O", 4.75),
    ("C#Cc1cn([C@@H]2O[C@H](CO)[C@@H](O)[C@H]2O)c2ncnc(NC)c12", "< 4.70"),
    ("CNc1ncnc2c1c(-c1cc3ccccc3o1)cn2[C@@H]1O[C@H](CO)[C@@H](O)[C@H]1O", "< 4.70"),
    ("C#Cc1cn([C@@H]2O[C@H](CO)[C@@H](O)[C@H]2O)c2ncnc(OC)c12", 6.52),
    ("Cc1ncnc2c1c(Br)cn2[C@@H]1O[C@H](CO)[C@@H](O)[C@H]1O", "< 4.70"),
    ("CNc1ncnc2c1c(-c1ccccc1)cn2[C@@H]1O[C@H](CO)[C@@H](O)[C@H]1O", "< 4.70"),
    ("CN(C)c1ncnc2c1ccn2[C@@H]1O[C@H](CO)[C@@H](O)[C@H]1O [RC4, reference compound]", 5.28),
    ("CN(C)c1ncnc2c1c(-c1cc3ccccc3o1)cn2[C@@H]1O[C@H](CO)[C@@H](O)[C@H]1O", "< 4.70"),
]
